# System: KRas-mediated phosphorylation of ERK in MKN1 cells
# ASSAY_SUMMARY: Inhibition of KRas-mediated phosphorylation of ERK (Cisbio HTRF pERK), MKN1 cells
# Assay type: cell-based
# APPLIED_CONDITIONS: Homo sapiens, MKN-1
Threshold 20 nM: IC50 strictly smaller gives condition met, otherwise condition not met.

MOLECULE | MEASURED_TARGET | ASSIGNED_CATEGORY
CCc1c(F)ccc2cc(O)cc(-c3ncc4c(N5CCC[C@@](C)(O)C5)nc(OCC5(CN(C)C)CC56CC6)nc4c3F)c12 (stereo partly drawn) [Example 783] | KRas-mediated phosphorylation of ERK in MKN1 cells | condition met
C#Cc1c(F)ccc2cc(O)cc(-c3ncc4c(N5CCC[C@@](C)(O)C5)nc(OC[C@]56CCCN5[C@H](CO)CC6)nc4c3F)c12 [Example 814] | KRas-mediated phosphorylation of ERK in MKN1 cells | condition not met
CCc1c(F)ccc2cc(O)cc(-c3ncc4c(N5CC6CCC(C5)C6CO)nc(OC[C@@]56CCCN5C[C@H](F)C6)nc4c3F)c12 (stereo partly drawn) [Example 845] | KRas-mediated phosphorylation of ERK in MKN1 cells | condition not met
C[C@@]1(O)CCCN(c2nc(OC[C@@]34CCCN3C[C@H](F)C4)nc3c(F)c(-c4c(C5CC5)c(Cl)cc5[nH]ncc45)ncc23)C1 [Example 880] | KRas-mediated phosphorylation of ERK in MKN1 cells | condition not met
CCc1c(F)ccc2cc(O)cc(-c3ncc4c(N5C[C@@H]6C[C@H](C5)[C@H](O)C6)nc(OCC56CCCN5C(C)CC6)nc4c3F)c12 (stereo partly drawn) [Example 928] | KRas-mediated phosphorylation of ERK in MKN1 cells | condition met

Then this molecule:
Input CCc1c(F)ccc2cc(O)cc(-c3ncc4c(N5CCC[C@@](C)(O)C5)nc(OC[C@@]56CCCN5[C@H](COC(C)C)CC6)nc4c3F)c12 [Example 895] ; condition: IC50 strictly below 20 nM. Does it hold?
condition met

----------
# MEASURED_TARGET: KRas^G12D (Homo sapiens, UniProt P01116, G12D)
# Construct: Biotinylated KRas (corresponding to amino acids 1-169, produced at Accelegan Inc.); biotin (biotinylated); purchased Accelegan Inc
# Sequence (P01116 1-169 isoform P01116-2 G12D): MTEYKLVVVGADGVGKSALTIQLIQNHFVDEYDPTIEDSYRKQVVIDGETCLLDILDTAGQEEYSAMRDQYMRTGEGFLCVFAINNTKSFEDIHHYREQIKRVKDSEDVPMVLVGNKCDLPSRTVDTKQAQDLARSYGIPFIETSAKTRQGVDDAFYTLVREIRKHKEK
# ASSAY_SUMMARY: KRas binding assay (TR-FRET tracer displacement), KRas G12D
READOUT: IC50

# count of solved cases: 6
MOLECULE | MEASURED_TARGET | IC50
CCc1c(F)ccc2cc(O)cc(-c3ncc4c(N5CCC[C@@](C)(O)C5)nc(N5CC(N)C5)nc4c3F)c12 [Example 527] | KRas^G12D (Homo sapiens, UniProt P01116, G12D) | 116 nM
CCc1c(F)ccc2cc(O)cc(-c3ncc4c(N5CCCn6nc(C(=O)N(C)C)cc6C5)nc(N5CC(C)(N)C5)nc4c3F)c12 [Example 532] | KRas^G12D (Homo sapiens, UniProt P01116, G12D) | 9 nM
CCc1c(F)ccc2cc(O)cc(-c3ncc4c(N5CCC[C@@](C)(O)C5)nc(OCC56CC5CCCN(C)C6)nc4c3F)c12 (stereo partly drawn) [Example 828] | KRas^G12D (Homo sapiens, UniProt P01116, G12D) | 11400 nM
CCc1c(F)ccc2cc(O)cc(-c3ncc4c(NCC5(C)CNS(=O)(=O)N5)nc(OC[C@@]56CCCN5C[C@H](F)C6)nc4c3F)c12 (stereo partly drawn) [Example 609] | KRas^G12D (Homo sapiens, UniProt P01116, G12D) | < 2 nM
CCCCCCCCCCN(C)C(=O)OC[C@@H]1CC[C@@]2(COc3nc(N4CCC[C@@](C)(O)C4)c4cnc(-c5cc(O)cc6ccc(F)c(CC)c56)c(F)c4n3)CCCN12 [Example 894] | KRas^G12D (Homo sapiens, UniProt P01116, G12D) | 121 nM
CCc1c(F)ccc2cc(O)cc(-c3ncc4c(N5C[C@@H]6C[C@H](C5)[C@H](O)C6)nc(OCC56CCCN5C/C(=C\F)C6)nc4c3F)c12 (stereo partly drawn) [Example 793] | KRas^G12D (Homo sapiens, UniProt P01116, G12D) | < 2 nM

For the next question, use this molecule.
Entry under test: O=S1(=O)CCC2(CCCN(c3nc(OC[C@@]45CCCN4C[C@H](F)C5)nc4c(F)c(-c5cc(O)cc6ccc(F)c(Cl)c56)ncc34)C2)N1 (stereo partly drawn) [Example 807] . Its IC50 was < 2 nM

----------
# System: KRas-mediated phosphorylation of ERK in H460 cells
# ASSAY_SUMMARY: Inhibition of KRas-mediated phosphorylation of ERK (Cisbio HTRF pERK), H460 cells
# Format: cell-based
# APPLIED_CONDITIONS: Homo sapiens, NCI-H460, HTRF pERK
# Method: Inhibition of KRas Phosphorylation of ERK (HTRF) by Exemplary Compounds of Formula (I) Cisbio HTRF Advanced PERK Assay Catalog #64[…] […] Add 10 mL of media to stop trypsinizing. Pipette the cells into a conical bottom 50 mL centrifuge tube and centrifuge 5 min×1000 rpm. […] Re-suspend the cell pellet in media, take a cell count, and then adjust the cell density using fresh media. […] At the end of incubation, read plate on the Envision after centrifuging plate 30 sec×1000 rpm.
Listed compounds paired with reported IC50
Just so you know, I need the unit written after the number.

Known value: KRas-mediated phosphorylation of ERK in H460 cells IC50 of the compound CCc1c(F)ccc2cc(O)cc(-c3ncc4c(N5CC6CCC(CO)(C5)C6(F)F)nc(OC[C@@]56CCCN5C[C@H](F)C6)nc4c3F)c12 (stereo partly drawn) [Example 901] equals 368 nM

Known value: KRas-mediated phosphorylation of ERK in H460 cells IC50 of the compound C=C1CN2CCCC2(COc2nc(N3CCCC4(CCO4)C3)c3cnc(-c4cc(O)cc5ccc(F)c(CC)c45)c(F)c3n2)C1 (stereo not drawn) [Example 941] equals 2 nM

Known value: KRas-mediated phosphorylation of ERK in H460 cells IC50 of the compound CCc1c(F)ccc2cc(O)cc(-c3ncc4c(N5CCCOC(CCOC)C5)nc(OC[C@@]56CCCN5C[C@H](F)C6)nc4c3F)c12 (stereo partly drawn) [Example 601] equals 133 nM

----------
# Tested on: KRas-mediated phosphorylation of ERK in H460 cells
# ASSAY_SUMMARY: Inhibition of KRas-mediated phosphorylation of ERK (Cisbio HTRF pERK), H460 cells
# Format: cell-based
# APPLIED_CONDITIONS: Homo sapiens, NCI-H460, HTRF pERK
READOUT: IC50

# count of solved cases: 2
COMPOUND | MEASURED_TARGET | IC50
CCc1c(F)ccc2cc(O)cc(-c3ncc4c(N5CC6CNCC6C5CO)nc(OC[C@@]56CCCN5C[C@H](F)C6)nc4c3F)c12 (stereo partly drawn) | KRas-mediated phosphorylation of ERK in H460 cells | > 10000 nM
CCc1c(F)ccc2cc(O)cc(-c3ncc4c(N5CCCC6(CC(O)C6)C5)nc(OCC5(CN(C)C)CC5)nc4c3F)c12 (stereo not drawn) | KRas-mediated phosphorylation of ERK in H460 cells | 72 nM

For the next question, use this compound.
Known value: KRas-mediated phosphorylation of ERK in H460 cells IC50 of the compound CCc1c(F)ccc2cc(O)cc(-c3ncc4c(N5CCC[C@]6(C5)C[C@H](O)C6)nc(OC[C@@]56CCCN5[C@H](COC(=O)N(C)C)CC6)nc4c3F)c12 equals 22 nM

----------
# System: KRas-mediated phosphorylation of ERK in MKN1 cells
# ASSAY_SUMMARY: Inhibition of KRas-mediated phosphorylation of ERK (Cisbio HTRF pERK), MKN1 cells
# Assay type: cell-based
# APPLIED_CONDITIONS: Homo sapiens, MKN-1
READOUT: IC50
Just so you know, I need the unit written after the number.

COMPOUND | IC50
CCCCN(C)C(=O)OC[C@@H]1CC[C@@]2(COc3nc(N4CCC[C@@](C)(O)C4)c4cnc(-c5cc(O)cc6ccc(F)c(CC)c56)c(F)c4n3)CCCN12 | 22 nM
Oc1cc(-c2ncc3c(N4CCCC5(CCO5)C4)nc(OC[C@@]45CCCN4C[C@H](F)C5)nc3c2F)c2c(Cl)c(F)ccc2c1 (stereo partly drawn) | 4 nM

For the next question, use this compound.
Entry under test: CCc1c(F)ccc2cc(O)cc(-c3ncc4c(N5CCC[C@@](C)(O)C5)nc(OC[C@@]56CCCN5[C@H](COCC5CC5)CC6)nc4c3F)c12 . Its IC50 was 18 nM

----------
Listed compounds paired with reported IC50
# Tested on: KRas-mediated phosphorylation of ERK in MKN1 cells
# ASSAY_SUMMARY: Inhibition of KRas-mediated phosphorylation of ERK (Cisbio HTRF pERK), MKN1 cells
# Assay type: cell-based
# APPLIED_CONDITIONS: Homo sapiens, MKN-1
Express the result in nM but write the number alone.

# count of solved cases: 2
COMPOUND | IC50 [nM]
CCc1c(F)ccc2cc(O)cc(-c3ncc4c(N5CCCc6ncccc6C5)nc(OC[C@@]56CCCN5C[C@H](F)C6)nc4c3F)c12 | 37
CCc1c(F)ccc2cc(O)cc(-c3ncc4c(N5CCC[C@@](C)(O)C5)nc(OC[C@@]56CCCN5[C@H](CNS(=O)(=O)N(C)C)CC6)nc4c3F)c12 | 6

Entry under test: CCc1c(F)ccc2cc(O)cc(-c3ncc4c(N5CCCn6nc(S(=O)(=O)N(C)C)cc6C5)nc(OC[C@@]56CCCN5C[C@H](F)C6)nc4c3F)c12 . Its IC50 was 9

Entry under test: CCc1c(F)ccc2cc(O)cc(-c3ncc4c(N5CCCn6nncc6C5)nc(OC[C@@]56CCCN5C[C@H](F)C6)nc4c3F)c12 . Its IC50 was 35

Entry under test: CCc1c(F)ccc2cc(O)cc(-c3ncc4c(N5CC6CCC(COCCOC)(C6)C5)nc(OC[C@@]56CCCN5C[C@H](F)C6)nc4c3F)c12 (some centres unmarked) . Its IC50 was 6

Entry under test: CCc1c(F)ccc2cc(O)cc(-c3ncc4c(N5CCCO[C@@H](CCO)C5)nc(OC[C@@]56CCCN5C[C@H](F)C6)nc4c3F)c12 . Its IC50 was 1

Entry under test: CCc1c(F)ccc2cc(O)cc(-c3ncc4c(N5CCC6CCC(C6)C5)nc(OC[C@@]56CCCN5C[C@H](F)C6)nc4c3F)c12 (some centres unmarked) . Its IC50 was 645

Entry under test: CCc1c(F)ccc2cc(O)cc(-c3ncc4c(N5CCCCC(n6ccnn6)C5)nc(OC[C@@]56CCCN5C[C@H](F)C6)nc4c3F)c12 (some centres unmarked) . Its IC50 was 188

Entry under test: CCc1c(F)ccc2cc(O)cc(-c3ncc4c(NCc5cc(C(=O)N(C)C)n(C(F)F)n5)nc(OC[C@@]56CCCN5C[C@H](F)C6)nc4c3F)c12 . Its IC50 was 57

Entry under test: CCc1c(F)ccc2cc(O)cc(-c3ncc4c(N5CC6CCC(C5)C6(F)F)nc(OC[C@@]56CCCN5C[C@H](F)C6)nc4c3F)c12 . Its IC50 was 290

Entry under test: C=C1CN2CCCC2(COc2nc(N3CC4C(=O)NC(=O)C4C3)c3cnc(-c4cc(O)cc5ccc(F)c(CC)c45)c(F)c3n2)C1 (centres unmarked) . Its IC50 was 4

Entry under test: CCc1c(F)ccc2cc(O)cc(-c3ncc4c(N5CC6CCC(C(=O)N(C)C)(C6)C5)nc(OC[C@@]56CCCN5C[C@H](F)C6)nc4c3F)c12 (some centres unmarked) . Its IC50 was 167
